From: ChEMBL document CHEMBL4513216

Kindly supply the reported cytotoxicity at 10 µM values for the records listed here.
# measurementNotes: Toxicity liver stage against HepG2, at 10uM
# Type: cell-based
# Design: test concentration 10 uM, cell line HepG2-A16-CD81EGFP
# statedConditions: human, HepG2-A16-CD81EGFP cells; read-out: INHIBITION
Numbers only, in %.

The following compounds have reported results that may help.
Cn1cc(CN2CCCC(CCc3ccc(F)cc3)C2)cn1 (stereo unspecified) = -12.6
Cc1ccc(-c2cc(CNc3ncnc4c3CCNCC4)no2)cc1 = 13
COc1ccc(C(C(=O)O)N2CCN(C3CCCC3)CC2)cc1C (stereo unspecified) = -8.77
CC(C)Cc1cc(C(=O)N2CC(OCc3ccccc3F)C2)n(C)n1 = 8.92
COCC(=O)N1CCc2ncc(Cn3cncn3)n2CC1 = -81

Could you tell me cytotoxicity at 10 µM for each of these compounds? They are listed below.
1. CCn1c(Cn2cncn2)nnc1C1CCN(Cc2cccnc2)CC1
2. O=C(c1ccsc1)N1CCN2C[C@H](OCc3ccccn3)C[C@H]2C1
3. Cc1cccc(CN2CCC3(CCCN(CC(=O)N(C)C)C3)C2)n1 (stereo unspecified)
4. CC(C(=O)NCc1ccc(F)cc1)N(C)CCN1CCOCC1 (stereo unspecified)

### Response
5.91
-71.8
-101
0.247

Could you tell me cytotoxicity at 10 µM for each of these compounds? They are listed below.
1. CCC[C@@H]1CN(Cc2nnc(-c3cccnc3)o2)C[C@H]1NC(C)=O
2. Cc1nnc(SC2CCN(c3sccc3C#N)C2=O)s1 (stereo unspecified)

### Response
[-4.89, -7.22]
